Catalogue of IC50 values
system: HepG2 (Liver Cancer); experiment: SRB assay, HepG2; format: cell-based; details: Homo sapiens, 72 h, read-out: IC50 (μM) (mean ± SD)
All answers are understood in µM, so give the number only.

Previously resolved entries follow.
Compound	IC50, µM
CCOC(=O)C(COC(=O)C1CCCCC1)NC(=O)[C@H](C)NC(=O)[C@H](OC)[C@H](O)[C@@H](O)[C@H](O)/C=C/C(C)(C)C (stereo partly shown) [Compound L558a]	1.11
CO[C@@H](C(=O)N[C@@H](C)C(=O)NCCOC(=O)C12CC3CC(CC(C3)C1)C2)[C@H](O)[C@@H](O)[C@H](O)/C=C/C(C)(C)C [Compound L538]	0.45
CO[C@@H](C(=O)N[C@@H](C)C(=O)NCCOC(=O)CCc1ccccc1)[C@H](O)[C@@H](O)[C@H](O)/C=C/C(C)(C)C [Compound L508]	0.56

[in] Would you mind telling me what IC50 value was observed for CO[C@@H](C(=O)N[C@H]1CC[C@@H](OC(=O)C2CCCCC2)CNC1=O)[C@H](O)[C@@H](O)[C@H](O)/C=C/C(C)(C)C [LAF389, reference compound] ?
[out] 0.21

###

test system: BEL-7402 (Liver Cancer); assay: SRB assay, BEL-7402; assay type: cell-based; conditions: Homo sapiens, 72 h, read-out: IC50 (μM) (mean ± SD)
Readout Type: IC50 (µM)
# value in µM; strip the unit string

Sample answers from the record:
Compound	Reported Result
CO[C@@H](C(=O)N[C@H]1CC[C@@H](OC(=O)C2CCCCC2)CNC1=O)[C@H](O)[C@@H](O)[C@H](O)/C=C/C(C)(C)C [LAF389, reference compound]	0.56
CO[C@@H](C(=O)N[C@@H](C)C(=O)NCCOC(=O)CCc1ccccc1)[C@H](O)[C@@H](O)[C@H](O)/C=C/C(C)(C)C	0.33
CCOC(=O)C(COC(=O)C1CCCCC1)NC(=O)[C@H](C)NC(=O)[C@H](OC)[C@H](O)[C@@H](O)[C@H](O)/C=C/C(C)(C)C (stereo partly shown) [Compound L558a]	0.28

Could you now consider this next compound?
[in] Reported IC50 for `CO[C@@H](C(=O)N[C@@H](C)C(=O)NCCOC(=O)C12CC3CC(CC(C3)C1)C2)[C@H](O)[C@@H](O)[C@H](O)/C=C/C(C)(C)C` : what is it?
[out] 0.37

###

system: SGC-7901 (Gastric Cancer); assay: SRB assay, SGC-7901; format: cell-based; settings: Homo sapiens, 72 h, read-out: IC50 (μM) (mean ± SD)
Catalogue of molecules with associated IC50
Give me the value, and tack the unit on after it.

Here's what some known entries look like.
> print(dat)
                                   molecule  reported.result
1  CO[C@@H](C(=O)N[C@@H](C)C(=O)NCCOC(=O)CCc1ccccc1)[C@H](O)[C@@H](O)[C@H](O)/C=C/C(C)(C)C          2.21 µM
2  CO[C@@H](C(=O)N[C@H]1CC[C@@H](OC(=O)C2CCCCC2)CNC1=O)[C@H](O)[C@@H](O)[C@H](O)/C=C/C(C)(C)C [LAF389, reference compound]          4.96 µM

Next, consider the following molecule.
[in] Query (molecule): `CO[C@@H](C(=O)N[C@@H](C)C(=O)NCCOC(=O)C12CC3CC(CC(C3)C1)C2)[C@H](O)[C@@H](O)[C@H](O)/C=C/C(C)(C)C` ; field requested: IC50
[out] 3.92 µM
